Entries and their measured pest or weed control at 100 ppm follow.
# Test system: Puccinia graminis (f. sp. tritici Race 15B-2)
# procedure details: whole plant or invertebrate
# Assay type: in vivo
# condition details: Puccinia graminis, 336 h, read-out: % Control WSR

Some solved cases for reference:
{"compound": "CCCCCCCCNC(=O)/C=C\\SC(=O)c1ccc(OC)cc1", "target desc": "Puccinia graminis (f. sp. tritici Race 15B-2)", "measurement name": "pest or weed control at 100 ppm", "value observed": "75%"}
{"compound": "CCCCCCCCNC(=O)/C=C\\SC(=O)c1cccc(OC)c1[N+](=O)[O-]", "target desc": "Puccinia graminis (f. sp. tritici Race 15B-2)", "measurement name": "pest or weed control at 100 ppm", "value observed": "0%"}
{"compound": "CCCCCCCCNC(=O)/C=C\\SC(=O)CC1C=CCC1 (centres unmarked)", "target desc": "Puccinia graminis (f. sp. tritici Race 15B-2)", "measurement name": "pest or weed control at 100 ppm", "value observed": "50%"}

Q: Name the reported pest or weed control at 100 ppm value associated with the compound `CCCCCCCCNC(=O)/C=C\SC(=O)C(C)(C)CCl`
A: 0%

Q: Follow-up entry: `CCCCCCCCNC(=O)/C=C\SC(=O)c1ccc([N+](=O)[O-])c([N+](=O)[O-])c1`
A: 50%
